Just for reference, patent US20060115816A1 is where these values come from.

Biological target: hCB1b (Homo sapiens, UniProt P21554)
Construct: expressed in transfected cells
Sequence (P21554 1-439 isoform P21554-3): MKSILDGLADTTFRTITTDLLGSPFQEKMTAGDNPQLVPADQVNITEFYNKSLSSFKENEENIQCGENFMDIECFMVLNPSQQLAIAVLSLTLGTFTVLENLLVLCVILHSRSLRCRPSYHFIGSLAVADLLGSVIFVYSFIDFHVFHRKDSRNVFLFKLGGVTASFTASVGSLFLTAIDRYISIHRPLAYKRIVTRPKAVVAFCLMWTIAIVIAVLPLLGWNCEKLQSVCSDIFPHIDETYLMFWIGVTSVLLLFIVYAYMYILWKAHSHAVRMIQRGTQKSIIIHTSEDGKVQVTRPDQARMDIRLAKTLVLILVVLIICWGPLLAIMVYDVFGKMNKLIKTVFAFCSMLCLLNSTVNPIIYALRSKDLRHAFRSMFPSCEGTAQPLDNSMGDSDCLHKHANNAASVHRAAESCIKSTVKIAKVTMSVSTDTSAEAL
Experiment: biochemical
Type: biochemical
Conditions: agonist; GTPγ[35S] binding assay; read-out: EC50 hCB1b
// reported EC50 per item

Lookup: EC50 / hCB1b (Homo sapiens, UniProt P21554) / CCCCC/C=C\C/C=C\C/C=C\C/C=C\CCCC(=O)OCCN
> 1 µM

Continuing:
Lookup: EC50 / hCB1b (Homo sapiens, UniProt P21554) / CCCCCCCCCCCCCCCC(=O)NCCO
> 1 µM

Now the same for CCCC(C)(C)c1ccc2c(c1)OC(C)(C)[C@@H]1CC=C(C)C[C@@H]21
> 1 µM

====

Biological target: hCB1a (Homo sapiens, UniProt P21554)
Construct: expressed in transfected cells
Sequence (P21554 1-411 isoform P21554-2): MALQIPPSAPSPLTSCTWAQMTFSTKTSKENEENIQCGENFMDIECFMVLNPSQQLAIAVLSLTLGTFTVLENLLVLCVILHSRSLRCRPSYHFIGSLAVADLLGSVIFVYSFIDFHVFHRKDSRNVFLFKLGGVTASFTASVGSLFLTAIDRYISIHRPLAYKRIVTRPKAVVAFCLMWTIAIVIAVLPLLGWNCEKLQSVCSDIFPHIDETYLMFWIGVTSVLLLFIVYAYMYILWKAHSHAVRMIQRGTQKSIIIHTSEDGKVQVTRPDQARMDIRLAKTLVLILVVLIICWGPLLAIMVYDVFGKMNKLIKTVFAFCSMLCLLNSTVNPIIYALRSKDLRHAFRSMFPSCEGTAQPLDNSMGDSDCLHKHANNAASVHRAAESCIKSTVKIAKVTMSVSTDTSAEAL
Test: biochemical
Assay type: biochemical
Settings: agonist; GTPγ[35S] binding assay; read-out: EC50 hCB1a
READOUT TYPE: EC50

Take a look at these entries with their results.
Lookup: EC50 / hCB1a (Homo sapiens, UniProt P21554) / CCCCC/C=C\C/C=C\C/C=C\C/C=C\CCCC(=O)OCCN
> 1 µM

Now the same for CCCCCCCCCCCCCCCC(=O)NCCO
> 1 µM

Attention now shifts to the item below.
Lookup: EC50 / hCB1a (Homo sapiens, UniProt P21554) / CCCC(C)(C)c1ccc2c(c1)OC(C)(C)[C@@H]1CC=C(C)C[C@@H]21
> 1 µM

====

Target: hCB1b (Homo sapiens)
Construct: expressed in transfected cells
Assay: biochemical
Type: biochemical
READOUT TYPE: pEC50
pEC50 field: float, defined as -log10 of concentration (mol/L).

For the compound shown here, CCCCCCC(C)(C)c1cc(O)c2c(c1)OC(C)(C)[C@@H]1CC=C(CO)C[C@@H]21 , give the reported pEC50.
9.82

====

Target: hCB1a (Homo sapiens)
Construct: expressed in transfected cells
Assay: biochemical
Type: biochemical
Details: read-out: EC50 hCB1a
pEC50: −log10 of the molar value.
READOUT TYPE: pEC50

For the molecule shown here, CCCCC/C=C\C/C=C\C/C=C\C/C=C\CCCCOC(CO)CO , give the reported pEC50.
< 6.00

====

Biological target: hCB1a (Homo sapiens, UniProt P21554)
Construct: expressed in transfected cells
Experiment: biochemical
Type: biochemical
READOUT TYPE: pEC50
pEC50 field: float, defined as -log10 of concentration (mol/L).

For the compound shown here, CCCCCCC(C)(C)c1cc(O)c2c(c1)OC(C)(C)[C@@H]1CC=C(CO)C[C@@H]21 , give the reported pEC50.
9.70

====

Molecular target: hCB2 (Homo sapiens, UniProt P34972)
Sequence (P34972 whole entry): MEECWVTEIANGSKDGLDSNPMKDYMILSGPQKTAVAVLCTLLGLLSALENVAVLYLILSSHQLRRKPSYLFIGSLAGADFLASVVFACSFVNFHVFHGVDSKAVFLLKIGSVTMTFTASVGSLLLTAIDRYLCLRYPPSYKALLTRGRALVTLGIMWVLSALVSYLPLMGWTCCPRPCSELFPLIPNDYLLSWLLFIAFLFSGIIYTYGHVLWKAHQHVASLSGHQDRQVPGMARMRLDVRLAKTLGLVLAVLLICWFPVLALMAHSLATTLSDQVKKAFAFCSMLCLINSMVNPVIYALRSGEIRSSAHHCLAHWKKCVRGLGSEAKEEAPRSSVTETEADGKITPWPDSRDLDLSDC
Assay: GTPγ[35S] binding assay, agonist properties on hCB2
READOUT TYPE: EC50

Take a look at these entries with their results.
For the compound shown here, CCCCC/C=C\C/C=C\C/C=C\C/C=C\CCCC(=O)OCCN [Virodhamine] , give the reported EC50.
1310 nM

Now the same for CCCCC/C=C\C/C=C\C/C=C\C/C=C\CCCCOC(CO)CO [Noladin Ether]
> 1000 nM

Now the same for CCCCC/C=C\C/C=C\C/C=C\C/C=C\CCCC(=O)OC(CO)CO [2-arachodonylglycerol]
1690 nM

Now the same for CCCC(C)(C)c1ccc2c(c1)OC(C)(C)[C@@H]1CC=C(C)C[C@@H]21 [JWH133]
1.8 nM

Attention now shifts to the item below.
For the compound shown here, CCCCCCCCCCCCCCCC(=O)NCCO [Palmitoylethanolamine] , give the reported EC50.
349 nM
